The measured values listed here are drawn from ChEMBL document CHEMBL5303300.

- Tested on: HEK-293T
- EXPERIMENT SUMMARY: Multiplex assay against HEK293T
- Assay type: toxicity, cell-based
- SETUP CONDITIONS: human, 48 h, 10 µM, compound concentration 10 uM, number of replicates 2
ASSAY ENDPOINT: Population Mitochondria Different-Phenotype (%)
Could you give me the number in %? Just the number is fine.

Known results for compounds:
{"COMPOUND": "CN1CCN(C(=O)Cc2ccc(N/C(=C3\\C(=O)Nc4cc(Cl)ccc43)c3ccccc3)cc2)CC1", "TARGET ENTITY": "HEK-293T", "VALUE UNITS": "%", "OBSERVED": 3}
{"COMPOUND": "CCC(=O)O[C@@H](OP(=O)(CCCCc1ccccc1)CC(=O)N1C[C@H](C2CCCCC2)C[C@H]1C(=O)[O-])C(C)C.[Na+] (stereo not given in full)", "TARGET ENTITY": "HEK-293T", "VALUE UNITS": "%", "OBSERVED": 0}
{"COMPOUND": "Fc1cccc(-n2cnc3c(NCc4nc5ccc(F)c(F)c5[nH]4)nc(N4CCOCC4)nc32)c1", "TARGET ENTITY": "HEK-293T", "VALUE UNITS": "%", "OBSERVED": 92}

Problem: Could you please provide reported Population Mitochondria Different-Phenotype (%) for COc1cc2nc(-c3cc(F)ccc3O)nc(N[C@@H]3CNC[C@H]3C(C)(C)O)c2cc1OC.Cl.Cl ? Thanks!
Result: 58

Problem: Could you please provide reported Population Mitochondria Different-Phenotype (%) for Cn1c(Nc2c(Cl)cccc2Cl)nc2ccc3nc[nH]c(=O)c3c21 ? Thanks!
Result: 3

* * *

- Tested on: Fibroblast
- EXPERIMENT SUMMARY: Multiplex assay against human fibroblast
- Format: toxicity, cell-based
- SETUP CONDITIONS: 48 h, 10 µM, compound concentration 10 uM, number of replicates 2
ASSAY ENDPOINT: Population Mitochondria Different-Phenotype (%)
Could you give me the number in %? Just the number is fine.

Known results for compounds:
{"COMPOUND": "COc1cc2nc(-c3cc(F)ccc3O)nc(N[C@@H]3CNC[C@H]3C(C)(C)O)c2cc1OC.Cl.Cl", "TARGET ENTITY": "Fibroblast", "VALUE UNITS": "%", "OBSERVED": 0}
{"COMPOUND": "CCC(=O)O[C@@H](OP(=O)(CCCCc1ccccc1)CC(=O)N1C[C@H](C2CCCCC2)C[C@H]1C(=O)[O-])C(C)C.[Na+] (stereo partly specified)", "TARGET ENTITY": "Fibroblast", "VALUE UNITS": "%", "OBSERVED": 0}

Problem: Could you please provide reported Population Mitochondria Different-Phenotype (%) for Br.Oc1cc2c(cc1O)C(c1ccccc1)CNCC2 (stereo unspecified) ? Thanks!
Result: 0

Problem: Could you please provide reported Population Mitochondria Different-Phenotype (%) for Cn1c(Nc2c(Cl)cccc2Cl)nc2ccc3nc[nH]c(=O)c3c21 ? Thanks!
Result: 0

Problem: Could you please provide reported Population Mitochondria Different-Phenotype (%) for Cc1cc(-c2cnc(N)c3c(-c4ccc5scnc5c4)csc23)n(C)n1 ? Thanks!
Result: 1

Problem: Could you please provide reported Population Mitochondria Different-Phenotype (%) for O=S(=O)(c1ccccc1)N(CC(F)(F)F)c1ccc(C(O)(C(F)(F)F)C(F)(F)F)cc1 [T091317] ? Thanks!
Result: 4

* * *

- Tested on: Fibroblast
- EXPERIMENT SUMMARY: Multiplex assay against human fibroblast
- Assay type: toxicity, cell-based
- SETUP CONDITIONS: 48 h, 1 µM, compound concentration 1 uM, number of replicates 2
ASSAY ENDPOINT: Population Normal (%)
Could you give me the number in %? Just the number is fine.

{"MOLECULE": "Br.Oc1cc2c(cc1O)C(c1ccccc1)CNCC2 (centres undefined)", "OBSERVED": 100}
{"MOLECULE": "CCC(=O)O[C@@H](OP(=O)(CCCCc1ccccc1)CC(=O)N1C[C@H](C2CCCCC2)C[C@H]1C(=O)[O-])C(C)C.[Na+] (some centres undefined)", "OBSERVED": 100}
{"MOLECULE": "CN(C)CCCN1c2ccccc2Sc2ccc(Cl)cc21.Cl [CHLORPROMAZINE HYDROCHLORIDE]", "OBSERVED": 99}

Problem: State the measured Population Normal (%) (Fibroblast) of CN1CCN(C(=O)Cc2ccc(N/C(=C3\C(=O)Nc4cc(Cl)ccc43)c3ccccc3)cc2)CC1
Result: 100

* * *

- Test system: HEK-293T
- EXPERIMENT SUMMARY: Multiplex assay against HEK293T
- Type: toxicity, cell-based
- SETUP CONDITIONS: human, 24 h, 10 µM, compound concentration 10 uM, number of replicates 2
Population Pyknosed Nuclei (%): recorded values
Give your result as the value with the unit written after it.

Problem: Could you please provide reported Population Pyknosed Nuclei (%) for Br.Oc1cc2c(cc1O)C(c1ccccc1)CNCC2 (stereo not given) ? Thanks!
Result: 4%

* * *

- Tested on: HEK-293T
- EXPERIMENT SUMMARY: Multiplex assay against HEK293T
- Assay type: toxicity, cell-based
- SETUP CONDITIONS: human, 48 h, 10 µM, compound concentration 10 uM, number of replicates 2
Population Normal (%): recorded values
Could you give me the number in %? Just the number is fine.

Known results for compounds:
{"COMPOUND": "Cn1c(Nc2c(Cl)cccc2Cl)nc2ccc3nc[nH]c(=O)c3c21", "Population Normal (%)": 96}
{"COMPOUND": "CN(C)C/C=C/C(=O)Nc1cccc(S(=O)(=O)N2CCC(NC(=O)c3n[nH]cc3NC(=O)c3c(Cl)cc(Cl)cc3Cl)CC2)c1", "Population Normal (%)": 85}
{"COMPOUND": "COC(=O)c1ccc2c(c1)NC(=O)/C2=C(\\Nc1ccc(-c2nccn2C)cc1)c1ccccc1", "Population Normal (%)": 88}
{"COMPOUND": "Cc1cc(-c2cnc(N)c3c(-c4ccc5scnc5c4)csc23)n(C)n1", "Population Normal (%)": 82}

Now take the following compound into account.
Problem: Could you please provide reported Population Normal (%) for Br.Oc1cc2c(cc1O)C(c1ccccc1)CNCC2 (stereo not given) ? Thanks!
Result: 90

* * *

Population Membrane Permeable-Phenotype (%): recorded values
- Tested on: Fibroblast
- EXPERIMENT SUMMARY: Multiplex assay against human fibroblast
- Format: toxicity, cell-based
- SETUP CONDITIONS: 24 h, 1 µM, compound concentration 1 uM, number of replicates 2
Could you give me the number in %? Just the number is fine.

Known results for compounds:
{"MOL": "COc1cc(N2CCN(C)CC2)ccc1Nc1ncc2c(n1)N(C)c1ccccc1C(=O)N2CC(F)(F)F", "OBSERVED": 1}
{"MOL": "CC(=O)N(CCN(C)C)c1ccc(N/C(=C2\\C(=O)Nc3cc(Cl)ccc32)c2ccccc2)cn1", "OBSERVED": 7}
{"MOL": "CN1CCN(C(=O)Cc2ccc(N/C(=C3\\C(=O)Nc4cc(Cl)ccc43)c3ccccc3)cc2)CC1", "OBSERVED": 5}
{"MOL": "COC(=O)c1ccc2c(c1)NC(=O)/C2=C(\\Nc1ccc(-c2nccn2C)cc1)c1ccccc1", "OBSERVED": 3}

Problem: Could you please provide reported Population Membrane Permeable-Phenotype (%) for O=C1CCCN1CCNc1nc(Nc2ccc(Cl)c(Cl)c2)ncc1C(F)(F)F ? Thanks!
Result: 5

* * *

- Test system: Fibroblast
- EXPERIMENT SUMMARY: Multiplex assay against human fibroblast
- Type: toxicity, cell-based
- SETUP CONDITIONS: 48 h, 1 µM, compound concentration 1 uM, number of replicates 2
ASSAY ENDPOINT: Population Normal (%)
Could you give me the number in %? Just the number is fine.

Known results for molecules:
{"MOLECULE": "COc1cc2nc(-c3cc(F)ccc3O)nc(N[C@@H]3CNC[C@H]3C(C)(C)O)c2cc1OC.Cl.Cl", "TARGET ENTITY": "Fibroblast", "VALUE UNITS": "%", "Population Normal (%)": 100}
{"MOLECULE": "CS(=O)(=O)c1ccc(C(=O)Nc2ccc(F)c(COc3ccc(Br)cc3CN3CC[C@H](O)C3)c2)c(Cl)c1.O=CO", "TARGET ENTITY": "Fibroblast", "VALUE UNITS": "%", "Population Normal (%)": 99}
{"MOLECULE": "CN(C)C/C=C/C(=O)Nc1cccc(S(=O)(=O)N2CCC(NC(=O)c3n[nH]cc3NC(=O)c3c(Cl)cc(Cl)cc3Cl)CC2)c1", "TARGET ENTITY": "Fibroblast", "VALUE UNITS": "%", "Population Normal (%)": 100}
{"MOLECULE": "CC(C)(C)c1cnc(CSc2cnc(NC(=O)C3CCN(CC(=O)NCCOCCOCCOCCNc4cccc5c4C(=O)N(C4CCC(=O)NC4=O)C5=O)CC3)s2)o1 (stereo not drawn)", "TARGET ENTITY": "Fibroblast", "VALUE UNITS": "%", "Population Normal (%)": 100}
{"MOLECULE": "Cc1cc(-c2cnc(N)c3c(-c4ccc5scnc5c4)csc23)n(C)n1", "TARGET ENTITY": "Fibroblast", "VALUE UNITS": "%", "Population Normal (%)": 100}

Problem: State the measured Population Normal (%) (Fibroblast) of COc1c(OCCCN2CCOCC2)ccc2c1N=C(NC(=O)c1cnc(N)nc1)N1CCN=C21 [COPANLISIB]
Result: 100

Problem: State the measured Population Normal (%) (Fibroblast) of Cn1cc(-c2ccc(N(C(=O)NCc3ccccc3)[C@H]3CC[C@H](Nc4ccc(C#N)cn4)CC3)cc2)ccc1=O
Result: 100

Problem: State the measured Population Normal (%) (Fibroblast) of O=C(Nc1ccc(Cl)c(-c2ccccn2)c1)c1cccc(COc2ccc(Br)cc2CNCCO)c1.O=CO
Result: 98
